# Measurement Description: Cytotoxicity against HUVEC assessed as cell viability at 100 uM after 72 hrs by MTT assay relative to control
# Assay type: cell-based
# Condition Context: human, HUVEC cells, read-out: Activity

Smiles Data: CC(C)(C)n1cc2c(n1)C(=O)CC1(CCN(C(=O)c3cc(-c4ccc(Br)cc4)nc4ccccc34)CC1)O2
viability at 72 h, 100 µM [%]: 84.1
--
Smiles Data: CN1CCN(c2cc(C(=O)N3CCC4(CC3)CC(=O)c3nn(C(C)(C)C)cc3O4)c3ccccc3n2)CC1
viability at 72 h, 100 µM [%]: 93.5
--
Smiles Data: CC(C)(C)n1cc2c(n1)C(=O)CC1(CCN(C(=O)c3cc(-c4ccccc4Cl)nc4ccccc34)CC1)O2
viability at 72 h, 100 µM [%]: 103
--
Smiles Data: CCOc1cc(C(=O)N2CCC3(CC2)CC(=O)c2nn(C(C)(C)C)cc2O3)c2ccccc2n1
viability at 72 h, 100 µM [%]: 96.1
--
Smiles Data: COc1cccc2c1C(=O)c1c(O)c3c(c(O)c1C2=O)C[C@@](O)(C(=O)CO)C[C@@H]3O[C@H]1C[C@H](N)[C@H](O)[C@H](C)O1
viability at 72 h, 100 µM [%]: 14.4
--
Smiles Data: Cc1ccc(-c2cc(C(=O)N3CCC4(CC3)CC(=O)c3nn(C(C)(C)C)cc3O4)c3ccccc3n2)cc1
viability at 72 h, 100 µM [%]: 49.6
--
Smiles Data: CC(C)(C)n1cc2c(n1)C(=O)CC1(CCN(C(=O)c3cc(Cl)nc4ccccc34)CC1)O2
viability at 72 h, 100 µM [%]: 99.3
--
Smiles Data: COc1ccc(-c2cc(C(=O)N3CCC4(CC3)CC(=O)c3nn(C(C)(C)C)cc3O4)c3ccccc3n2)cc1OC
viability at 72 h, 100 µM [%]: 93.7
--
Smiles Data: CC(C)(C)n1cc2c(n1)C(=O)CC1(CCN(C(=O)c3ccc4[nH]ncc4c3)CC1)O2
viability at 72 h, 100 µM [%]: 101
--
Smiles Data: CC(C)(C)n1cc2c(n1)C(=O)CC1(CCN(C(=O)c3cc(-c4ccc(F)cc4)nc4ccccc34)CC1)O2
viability at 72 h, 100 µM [%]: 98.7
--
Smiles Data: COc1cc(C(=O)N2CCC3(CC2)CC(=O)c2nn(C(C)(C)C)cc2O3)c2ccccc2n1
viability at 72 h, 100 µM [%]: 98.6
--
Smiles Data: CC(C)(C)n1cc2c(n1)C(=O)CC1(CCN(C(=O)c3cc(-c4ccncc4)nc4ccccc34)CC1)O2
viability at 72 h, 100 µM [%]: 95.2
--
Smiles Data: CC(C)Oc1cc(C(=O)N2CCC3(CC2)CC(=O)c2nn(C(C)(C)C)cc2O3)c2ccccc2n1
viability at 72 h, 100 µM [%]: 102
--
Smiles Data: CC(C)(C)n1cc2c(n1)C(=O)CC1(CCN(C(=O)c3cc(-c4ccc(N)cc4)nc4ccccc34)CC1)O2
viability at 72 h, 100 µM [%]: 84.8
--
Smiles Data: CC(C)(C)n1cc2c(n1)C(=O)CC1(CCN(C(=O)c3cc(-c4ccc(Cl)cc4)nc4ccccc34)CC1)O2
viability at 72 h, 100 µM [%]: 87.3
--
Smiles Data: CN(C)c1ccc(-c2cc(C(=O)N3CCC4(CC3)CC(=O)c3nn(C(C)(C)C)cc3O4)c3ccccc3n2)cc1
viability at 72 h, 100 µM [%]: 91.3
